Origin of measurements: patent US20200109126A1

- measuredTarget: hDOR (Homo sapiens)
- Sequence (P41143 whole entry): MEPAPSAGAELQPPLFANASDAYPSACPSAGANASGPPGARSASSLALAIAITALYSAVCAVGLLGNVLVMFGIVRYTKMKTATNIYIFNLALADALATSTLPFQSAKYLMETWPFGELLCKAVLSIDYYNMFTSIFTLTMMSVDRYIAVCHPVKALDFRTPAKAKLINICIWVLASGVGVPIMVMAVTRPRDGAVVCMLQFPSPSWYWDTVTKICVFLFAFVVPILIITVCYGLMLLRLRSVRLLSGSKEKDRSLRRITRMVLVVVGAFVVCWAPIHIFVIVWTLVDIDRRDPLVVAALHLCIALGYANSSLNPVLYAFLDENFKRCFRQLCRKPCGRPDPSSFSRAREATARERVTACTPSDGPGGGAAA
- experiment: Radioligand binding studies (Example 6) at hDOR
pKi: −log10 of the molar value.
pKi values, listed per item
parameter: pKi

querySmiles | parameter | valueReported
CC(=O)Oc1ccc(C[C@@H](CNC(=O)N[C@@H](C)Cc2ccsc2)N(C)C)cc1 | pKi | 6.04
C[C@@H](Cc1ccsc1)NC(=O)NC[C@@H]1Cc2ccc(O)cc2CN1C | pKi | 6.82
C[C@@H](Cc1ccsc1)Nc1c(NC[C@H](Cc2ccc(O)cc2)N(C)C)c(=O)c1=O | pKi | 6.19
COc1ccc(C[C@@H](CNC(=O)N[C@@H](C)Cc2ccsc2)N(C)C)cc1 | pKi | 5.23
COc1cc(F)ccc1CCNC(=O)NC[C@H](Cc1ccc(O)cc1)N(C)C | pKi | 6.41
CN(C)[C@H](CNc1nc(=O)cc(Cc2ccccc2)[nH]1)Cc1ccc(O)cc1 | pKi | 6.41
CN(C)[C@H](CNc1c(NCCc2ccccc2)c(=O)c1=O)Cc1ccc(O)cc1 | pKi | 5.54

----------
- measuredTarget: UniProt P35372
- experiment: Receptor binding with [3H]diprenorphine at hMOR
- particulars: ± SD (two experiments) or SEM; (n) experiments; read-out: hMOR [3H]dyprenorphine Ki
parameter: log10(Ki) (log10 of the value in nM)

compound | log10(Ki)
CN(C)[C@H](CNC(=O)NCCc1ccsc1)Cc1ccc(O)cc1 | 1.63
CN(C)[C@H](CNC(=O)NC1Cc2ccccc2C1)Cc1ccc(O)cc1 [DD 57L] | 0.92
Cc1cc(O)cc(C)c1C[C@@H](CNC(=O)N[C@H](C)Cc1ccsc1)N(C)C [BD 131LR] | 0.61
C[C@@H](Cc1ccsc1)NC(=O)NC[C@H](Cc1cccc(O)c1)N(C)C [DD 47LS] | 1.53
CN(C)[C@H](CNC(=O)NC(C)(C)Cc1ccsc1)Cc1ccc(O)cc1 [DD 32L] | 1.58
C[C@@H](Cc1ccccc1)NC(=O)NC[C@H](Cc1ccc(O)cc1)N(C)C [DD 61L-B] | 1.62
Cc1cc(O)cc(C)c1C[C@@H](CNC(=O)N[C@@H](C)Cc1ccsc1)N(C)C [BD 131LS] | 1.08

----------
- measuredTarget: MM1 (MOR N127C) (Homo sapiens, UniProt P35372, N129C)
- Construct: expressed in transfected cells; host or cells: HEK 293
- experiment: Receptor binding at MM1 (MOR N127C)
pKi: −log10 of the molar value.
parameter: pKi

querySmiles | parameter | valueReported
CN(C)[C@H](CNC(=O)NCCc1c[nH]nn1)Cc1ccc(O)cc1 | pKi | 6.20

----------
- measuredTarget: hKOR (Homo sapiens, UniProt P41145)
- Sequence (P41145 whole entry): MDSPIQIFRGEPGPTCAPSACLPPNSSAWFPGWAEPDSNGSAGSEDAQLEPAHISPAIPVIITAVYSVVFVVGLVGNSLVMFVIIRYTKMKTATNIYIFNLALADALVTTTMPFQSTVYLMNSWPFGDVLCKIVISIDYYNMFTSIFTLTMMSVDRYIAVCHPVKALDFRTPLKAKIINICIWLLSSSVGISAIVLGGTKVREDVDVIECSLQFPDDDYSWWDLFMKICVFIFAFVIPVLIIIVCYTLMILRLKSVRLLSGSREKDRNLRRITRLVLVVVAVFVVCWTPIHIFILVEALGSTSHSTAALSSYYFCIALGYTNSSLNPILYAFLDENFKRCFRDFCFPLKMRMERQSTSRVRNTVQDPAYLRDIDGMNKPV
- experiment: Radioligand binding studies (Example 6) at hKOR
- particulars: read-out: Binding affinities hKOR [3H]dyprenorph
pKi: −log10 of the molar value.
parameter: pKi

querySmiles | parameter | valueReported
CN[C@H](CNC(=O)NCCc1ccc(F)cc1OC)Cc1ccc(O)cc1 | pKi | 6.49

----------
- measuredTarget: κOR (Homo sapiens, UniProt P41145)
- Construct: NIMH Psychoactive Drug Screening Program (PDSP)
- Sequence (P41145 whole entry): as above
- experiment: Radioligand binding at κOR (PDSP)
- particulars: κOR Ki (μM), analogs, full dose-response
Ki values, listed per item

querySmiles | Ki
O=C(Cc1cn2ccccc2n1)NCC1(c2ccccc2)CCC1 | 1.36 µM
CN(C)[C@H](CNC(=O)NCc1cccc([N+](=O)[O-])c1)Cc1ccccc1 | 0.51 µM
C[C@H](Cc1ccsc1)NC(=O)NC[C@@H](Cc1ccccc1)N(C)C | 0.46 µM
COc1nc(C)cc(C)c1CNC(=O)NC[C@@H](Cc1ccccc1)N(C)C | 1.02 µM
